What pEC50 was measured for each of the following?
Molecular target: human RORγ (Homo sapiens, UniProt P51449)
Construct: human RORγ, from Ser253 to Lys518; expressed in transfected cells; host or cells: CHO cells (Chinese hamster ovary), transient co-transfection with pG5-Luc
Sequence (P51449 253-518): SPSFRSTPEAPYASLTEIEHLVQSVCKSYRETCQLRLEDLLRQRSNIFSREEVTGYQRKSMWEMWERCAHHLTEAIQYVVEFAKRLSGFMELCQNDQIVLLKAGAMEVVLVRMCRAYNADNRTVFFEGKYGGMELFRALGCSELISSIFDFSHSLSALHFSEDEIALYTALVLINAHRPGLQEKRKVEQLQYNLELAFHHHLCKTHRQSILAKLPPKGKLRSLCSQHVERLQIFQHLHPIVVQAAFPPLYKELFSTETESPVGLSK
Experiment: In vitro assay of inhibitory effect against RORγ transcriptional activity (GAL4-hRORγ LBD luciferase reporter gene assay in CHO cells)
Format: cell-based
Conditions: GAL4-hRORγ LBD / pG5-Luc in CHO cells, 2 days incubation
pEC50: −log10 of the molar value.

// below: answered molecules
molecule: CC(C)C1=CN(CCC(=O)O)C(=O)N[C@]1(C)c1ccc(C2=CCCC2)c(Cl)c1 [Example 148]
value-measured: < 5.10
--
molecule: CC(C)C1=CN(CCC(C)C(=O)O)C(=O)NC1(C)c1ccc(CCC(C)(C)C)c(Cl)c1 (single isomer, unassigned) [Example 25]
value-measured: > 7.49
--
molecule: CC(C)C1=CN(CCC(=O)O)C(=O)N[C@]1(C)c1ccc(C2=CCC(C)(C)CC2)c(Cl)c1 [Example 115]
value-measured: < 5.10

Field: next molecule
## Input Reported pEC50, molecule CC(C)(C)CCc1ccc(C2NC(=O)N([C@H]3C[C@H](C(=O)O)C3)C=C2C(C)(C)C)cc1Cl (single isomer, unassigned) [Example 102] : ____
## Output < 5.10

###

Target: mouse RORγ (Mus musculus)
Construct: mouse RORγ, from Ile251 to Lys516; expressed in transfected cells; host or cells: CHO cells (Chinese hamster ovary), transient co-transfection with pG5-Luc
Sequence (P51450 251-516): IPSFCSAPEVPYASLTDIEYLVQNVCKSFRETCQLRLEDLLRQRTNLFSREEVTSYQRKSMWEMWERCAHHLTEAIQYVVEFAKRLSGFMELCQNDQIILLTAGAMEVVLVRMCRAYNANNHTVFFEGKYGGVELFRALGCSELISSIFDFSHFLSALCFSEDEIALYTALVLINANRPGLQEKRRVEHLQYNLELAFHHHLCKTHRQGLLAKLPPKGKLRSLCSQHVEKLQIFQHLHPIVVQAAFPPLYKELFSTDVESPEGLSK
Assay: In vitro assay of inhibitory effect against RORγ transcriptional activity (GAL4-mRORγ LBD luciferase reporter gene assay in CHO cells)
Type: cell-based
Conditions: GAL4-mRORγ LBD luciferase reporter, CHO cells; read-out: LUC EC50 mRORγ
What EC50 was measured for each of the following?
Give bare numbers, in nM.

// below: answered molecules
smiles-code: COCCC1=CN(c2ccc(C(=O)O)cn2)C(=O)N[C@@]1(C)c1ccc(C2=CCC(C)(C)CC2)c(Cl)c1
output-unit: nM
value-measured: 14
//
smiles-code: CC(C)C1=CN(CCC(=O)O)C(=O)N[C@@]1(C)c1ccc([C@H]2C[C@@H](C(C)(C)C)C2)c(Cl)c1
output-unit: nM
value-measured: 30
//
smiles-code: CC(C)N1C=C(CCC(=O)O)[C@](C)(c2ccc(CCC(C)(C)C)c(Cl)c2)NC1=O
output-unit: nM
value-measured: 76

Field: next molecule
## Input Request - read-out EC50 | tested on mouse RORγ (Mus musculus) | molecule "CC(C)C1=CN(CCC(=O)O)C(=O)N[C@@]1(C)c1ccc(CCC(C)(C)C)cc1"
## Output 34

###

What EC50 was measured for each of the following?
Biological target: mouse RORγ (Mus musculus)
Construct: mouse RORγ, from Ile251 to Lys516; expressed in transfected cells; host or cells: CHO cells (Chinese hamster ovary), transient co-transfection with pG5-Luc
Assay: In vitro assay of inhibitory effect against RORγ transcriptional activity (GAL4-mRORγ LBD luciferase reporter gene assay in CHO cells)
Format: cell-based
Details: GAL4-mRORγ LBD luciferase reporter, CHO cells; read-out: LUC EC50 mRORγ
Procedure: In Vitro Assay of Inhibitory Effect Against RORγ Transcriptional Activity Inhibitory effect of a test article on transcriptional activity of RORγ was measured by means of the following reporter gene assay. […] RORγ transcriptional activity was detected as the intracellular luciferase activity using SteadyLite HTS Reporter Gene Assay System (Perkin Elmer). […] After the incubation at room temperature for 10 minutes, luminescence of each well was measured by a microplate reader. […]
Give bare numbers, in µM.

// below: answered molecules
molecule: CC(C)C1=CN(CCC(=O)O)C(=O)N[C@@]1(C)c1ccc(CCC(C)(C)F)c(Cl)c1 [Example 294]
output-unit: µM
value-measured: 0.034
//
molecule: CC(C)C1=CN(CCC(=O)O)C(=O)N[C@@]1(C)c1ccc(CCC(C)(C)C)c(C(F)(F)F)c1 [Example 270]
output-unit: µM
value-measured: 0.026

Field: next molecule
## Input Reported EC50, molecule CC(C)C1=CN(c2ccc(C(=O)O)cc2)C(=O)N[C@@]1(C)c1cc(F)c(OCC(C)(C)C)c(Cl)c1 [Example 193] : ____
## Output 0.019

Measured values drawn from patent US10196363B2 for this set.
